System: redroot pigweed
ASSAY METHOD TEXT: Test A pre-/postemergence herbicide test
Assay type: in vivo, Amaranthus retroflexus
EXPERIMENTAL CONDITIONS: preemergence, 500 g ai/ha; visual injury, 0 to 100 scale (0 no effect, 100 complete control)
Values of Pigweed plant response rating greater than or equal to 90 map to Met; values below map to Not met.

Here's what some known entries look like.
CCN(CC)C(=O)c1cccc(NC(=O)c2cc(C(C)(C)C)nn2C)n1 [Compound 314] | Not met
C#CCNC(=O)c1ccc(F)c(NC(=O)c2cc(C(C)(C)C)nn2CC)n1 [Compound 279] | Met
CCn1nc(C(C)(C)C)cc1C(=O)Nc1cncc(C(=O)N2CC=CC2)n1 [Compound 290] | Not met
C#CCNC(=O)c1cncc(NC(=O)c2cc(C(C)(C)C)nn2CC)n1 [Compound 289] | Not met

Request: Does the compound CCN(CC)C(=O)c1ccnc(NC(=O)c2cc(C(C)(C)C)nn2CC)c1 [Compound 153] have recorded Pigweed plant response rating that is 90 or more?
Response: Met

---

Tested on: ducksalad
ASSAY METHOD TEXT: Test C flooded paddy test
Assay type: in vivo, Heteranthera limosa
EXPERIMENTAL CONDITIONS: 125 g ai/ha, scale 0 to 100 (0 no effect, 100 complete control)
Source text: […]
Parameter: Ducksalad plant response rating. Scope: all listed entries.
Form field (numeric): enter value without unit.

Use these answered entries as a reference point.
CCNC(=O)c1ccc(F)c(NC(=O)c2sc(C(C)(C)C)nc2CC)c1 [Compound 226] | 0
C=CCNC(=O)c1cccc(NC(=O)c2nn(C(C)C)nc2CC)c1 [Compound 382] | 65
CCn1nc(C(C)(C)C)cc1C(=O)Nc1ccc(OC)c(OC)c1 [Compound 298] | 40

Request: Consider the molecule shown here: CCNC(=O)c1cc(NC(=O)c2cc(C(C)(C)C)nn2CC)c(F)cc1F [Compound 252] What is its recorded Ducksalad plant response rating?
Response: 0

Request: Any idea what its Ducksalad plant response rating is? The molecule is C#CCNC(=O)c1cccc(NC(=O)c2sc(C(C)(C)C)nc2CC)c1 [Compound 319]
Response: 0

Request: Consider the molecule CCn1nc(C(C)(C)C)cc1C(=O)Nc1cncc(C(=O)N2CC=CC2)c1 [Compound 260] and give its measured Ducksalad plant response rating.
Response: 70

Request: Given the molecule CCN(C)C(=O)c1cccc(NC(=O)c2nn(C(C)C)nc2C)c1 [Compound 407] , what is its reported Ducksalad plant response rating?
Response: 40

Request: // Ducksalad plant response rating lookup, key: C#CCNC(=O)c1cc(NC(=O)c2cc(C(C)(C)C)nn2CC)ccn1 [Compound 283]
Response: 0

Request: Can you look up the measured Ducksalad plant response rating of CCn1nc(C(C)(C)C)cc1C(=O)Nc1cncc(C(=O)N2CC=CC2)n1 [Compound 290] for me?
Response: 0

Request: Please give the measured Ducksalad plant response rating for this molecule: CCn1nc(C(C)(C)C)cc1C(=O)Nc1cc(C(=O)NCC2CC2)ccn1 [Compound 155]
Response: 80

Request: Name the reported Ducksalad plant response rating value associated with the molecule CCc1nn(C(C)(C)C)cc1C(=O)Nc1cccc(C(C)=O)c1 [Compound 187]
Response: 40

Request: Using the record for C#CCNC(=O)c1cccc(NC(=O)c2cc(C(C)(C)C)nn2CC)n1 [Compound 147] , report its Ducksalad plant response rating.
Response: 0
